System: NCI-H929 complex spheroids, viability % test/control
assay_remarks: Anticancer human tumor NCI-H929 cell line growth inhibition [RAS];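 note: compound exposure lasted seven days before viability was read; 100% = DMSO vehicle control viability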
condition: second compound 0.0949 µM; first compound 3.16 µM; stronger effect = lower value
measurement_kind: viability, T/C (%)
Write it as a number; the unit % goes unstated.

Query :: Please give measured viability, T/C of the following entry: CC(Nc1ccc2c(c1)OCCn1cc(N3C(=O)OCC3C(F)F)nc1-2)C(N)=O (stereo not drawn) + CCn1c(-c2cc(N3CCN(C)CC3)cnc2C(C)OC)c2c3cc(ccc31)-c1csc(n1)CC(NC(=O)C1CC1C)C(=O)N1CCCC(N1)C(=O)OCC(C)(C)C2
Result :: 0.37

Query :: Please give measured viability, T/C of the following entry: CC(C)NCC(C(=O)N1CCN(c2ncnc3c2C(C)CC3O)CC1)c1ccc(Cl)cc1 (stereo not drawn) + CCn1c(-c2cc(N3CCN(C)CC3)cnc2C(C)OC)c2c3cc(ccc31)-c1csc(n1)CC(NC(=O)C1CC1C)C(=O)N1CCCC(N1)C(=O)OCC(C)(C)C2
Result :: 0.37

Query :: Please give measured viability, T/C of the following entry: CC(Nc1ccc2c(c1)OCCn1cc(N3C(=O)OCC3C(F)F)nc1-2)C(N)=O (stereo not drawn) + CCn1c(-c2cccnc2C(C)OC)c2c3cc(ccc31)N1CCOC(CC(NC(=O)C(C(C)C)N(C)C(=O)C3(F)CCN(C(=O)C#CC(C)(C)N(C)C)CC3)C(=O)N3CCCC(N3)C(=O)OCC(C)(C)C2)C1
Result :: 80.2

Query :: Please give measured viability, T/C of the following entry: C[C@@H](NC(=O)c1ncnc(N)c1Cl)c1ncc(C(=O)Nc2cc(C(F)(F)F)c(Cl)cn2)s1 + CCn1c(-c2cccnc2C(C)OC)c2c3cc(ccc31)N1CCOC(CC(NC(=O)C(C(C)C)N(C)C(=O)C3(F)CCN(C(=O)C#CC(C)(C)N(C)C)CC3)C(=O)N3CCCC(N3)C(=O)OCC(C)(C)C2)C1
Result :: 96.2

Query :: Please give measured viability, T/C of the following entry: C[C@@H](NC(=O)c1ncnc(N)c1Cl)c1ncc(C(=O)Nc2cc(C(F)(F)F)c(Cl)cn2)s1 + CCn1c(-c2cc(N3CCN(C)CC3)cnc2C(C)OC)c2c3cc(ccc31)-c1csc(n1)CC(NC(=O)C1CC1C)C(=O)N1CCCC(N1)C(=O)OCC(C)(C)C2
Result :: 45.6

Query :: Please give measured viability, T/C of the following entry: CC(C)NCC(C(=O)N1CCN(c2ncnc3c2C(C)CC3O)CC1)c1ccc(Cl)cc1 (stereo not drawn) + CCn1c(-c2cccnc2C(C)OC)c2c3cc(ccc31)N1CCOC(CC(NC(=O)C(C(C)C)N(C)C(=O)C3(F)CCN(C(=O)C#CC(C)(C)N(C)C)CC3)C(=O)N3CCCC(N3)C(=O)OCC(C)(C)C2)C1
Result :: 9.37

Query :: Please give measured viability, T/C of the following entry: CC1(O)CCCC1n1c(=O)c(C(F)F)cc2cnc(NC3CCN(S(C)(=O)=O)CC3)nc21 (stereo not drawn) + CCn1c(-c2cccnc2C(C)OC)c2c3cc(ccc31)N1CCOC(CC(NC(=O)C(C(C)C)N(C)C(=O)C3(F)CCN(C(=O)C#CC(C)(C)N(C)C)CC3)C(=O)N3CCCC(N3)C(=O)OCC(C)(C)C2)C1
Result :: 1.28

Query :: Please give measured viability, T/C of the following entry: CC1(O)CCCC1n1c(=O)c(C(F)F)cc2cnc(NC3CCN(S(C)(=O)=O)CC3)nc21 (stereo not drawn) + CCn1c(-c2cc(N3CCN(C)CC3)cnc2C(C)OC)c2c3cc(ccc31)-c1csc(n1)CC(NC(=O)C1CC1C)C(=O)N1CCCC(N1)C(=O)OCC(C)(C)C2
Result :: 0.85
